Numbers sourced from ChEMBL document CHEMBL1201862.

Listed next: entries and their corresponding GI50.
# Tested on: SF-539
# ASSAY_DETAILS: NCI tumour cell line growth inhibition, 48 h
Calls of active or inactive are those of the source. Rule as the data show it: active = GI50 up to about 1.1 µM and inactive = higher.

MOLECULE: C=C1CCCCCCCCCCC12SCCC2CCCCSC (stereo not given)
SYSTEM_NAME: SF-539
GI50: 20.6 µM (inactive)

MOLECULE: CN1C2CCC1CN(CCOC(c1ccc(F)cc1)c1ccc(F)cc1)C2
SYSTEM_NAME: SF-539
GI50: 16.6 µM (inactive)

MOLECULE: O=C(Cn1nnc(-c2ccccc2)n1)N/N=C/c1cn(Cc2ccc(Cl)cc2Cl)c2ccccc12
SYSTEM_NAME: SF-539
GI50: > 100 µM (inactive)

MOLECULE: CCOC(=O)c1nnc2c(C#N)c(-c3ccccc3)c(C)n2c1N
SYSTEM_NAME: SF-539
GI50: 30.9 µM (inactive)

MOLECULE: CCOP(=O)(OCC)C(C(=O)OC)C(=O)C(=O)Nc1ccc(Cl)cc1Cl (stereo not given)
SYSTEM_NAME: SF-539
GI50: > 100 µM (inactive)

MOLECULE: CC1CC2OC(=O)C(C)C2CC2(C)C(OC3OC(CO)C(O)C(O)C3O)OCCC12 (stereo not given)
SYSTEM_NAME: SF-539
GI50: > 100 µM (inactive)

MOLECULE: CC(NNC(=O)c1ccncc1)c1ccc(F)cc1 (stereo not given)
SYSTEM_NAME: SF-539
GI50: > 100 µM (inactive)

MOLECULE: Cc1ccc(S(=O)(=O)ON2C(=O)c3c(N)c(C#N)c(-c4ccccc4)c(-c4ccccc4)c3C2=O)cc1
SYSTEM_NAME: SF-539
GI50: 21.6 µM (inactive)

MOLECULE: Cn1c(=O)c2c(nc3sc4ncccc4c(=O)n32)n(C)c1=O
SYSTEM_NAME: SF-539
GI50: > 100 µM (inactive)

MOLECULE: Cc1cc(C)cc(Nc2nnc3n2S(=O)(=O)c2cc(C)c(Cl)cc2S3)c1
SYSTEM_NAME: SF-539
GI50: 2.89 µM (inactive)
